- protocol_description: Cytotoxicity in uninfected CEM-SS cells (MTT)
- Assay type: cell-based
- condition_details: human, cem-ss cells
measurement_name: CC50 at 144 h (µM)
Numbers only, in µM.

Nc1ccn([C@H]2CC[C@@H](CO)O2)c(=O)n1 [ddC, dideoxycytidine] yielded CC50 at 144 h of 37.7

====

- protocol_description: Cytotoxicity in uninfected CEM-SS cells (MTT)
- Format: cell-based
- condition_details: human; uninfected CEM-SS cells, 6 days; read-out: TC50
Give measured CC50 at 144 h for each item. Keep answers brief.

compound | endpoint_result
Cc1cn([C@H]2C[C@H](N=[N+]=[N-])[C@@H](CO)O2)c(=O)[nH]c1=O [AZT, azidothymidine] | > 374 µM

Cc1c(O)cccc1C(=O)NC(CSc1ccccc1)C(O)CN1CC2CCCCC2CC1C(=O)NC(C)(C)CO (centres unmarked) [Compound 21] yielded CC50 at 144 h of 96.6 µM

====

- protocol_description: Cytotoxicity in uninfected MT-2 cells (MTT)
- Assay type: cell-based
- condition_details: human; uninfected MT-2 cells, 7 days; read-out: TC50
measurement_name: CC50 at 168 h (µM)
Give bare numbers, in µM.

compound | units_symbol | CC50 at 168 h
Cc1cn([C@H]2C[C@H](N=[N+]=[N-])[C@@H](CO)O2)c(=O)[nH]c1=O [AZT, azidothymidine] | µM | 109

Cc1c(O)cccc1C(=O)NC(CSc1ccccc1)C(O)CN1CC2CCCCC2CC1C(=O)NC(C)(C)CO (centres unmarked) [Compound 21] yielded CC50 at 168 h of 92.6

====

- protocol_description: Cytotoxicity in uninfected MT-2 cells (MTT)
- Assay type: cell-based
- condition_details: human, mt-2 cells
measurement_name: CC50 at 168 h (µM)
Numbers only, in µM.

Nc1ccn([C@H]2CC[C@@H](CO)O2)c(=O)n1 [ddC, dideoxycytidine] yielded CC50 at 168 h of 176

====

- System: HIV-1 IIIB
- protocol_description: Cell protection assay (MTT dye reduction): acute infection of MT-2 cells with HIV-1 IIIB
- Format: cell-based, HIV-1 strain IIIB (in human T cell line MT-2)
- condition_details: Human immunodeficiency virus 1, IIIB, MT2, 168 h, read-out: ED50
measurement_name: EC50 (nM)
Answers are plain numbers, in nM.

Cc1cn([C@H]2C[C@H](N=[N+]=[N-])[C@@H](CO)O2)c(=O)[nH]c1=O [AZT, azidothymidine] yielded EC50 of 431
